Taken from patent US4061753A.

Assay protocol: Partition Coefficient Studies (water solubility, heptane solubility, water/heptane partition)
Test settings: water/heptane
// criterion not met strictly below 1 in Water/Heptane partition coefficient; criterion met otherwise

| Substance smiles | Assigned category |
| --- | --- |
| Cn1c(=O)c2c(ncn2COC(=O)C(C)(C)C)n(C)c1=O | criterion met |
| CCCC(=O)OCn1cnc2c1c(=O)n(C)c(=O)n2C | criterion met |
| CCCCCC(=O)OCn1cnc2c1c(=O)n(C)c(=O)n2C | criterion not met |
| CCC(=O)OCn1cnc2c1c(=O)n(C)c(=O)n2C | criterion met |

Moving on to another compound below.
Hi, just wondering whether CCCCCCCC(=O)OCn1cnc2c1c(=O)n(C)c(=O)n2C shows Water/Heptane partition coefficient of 1 or higher.
criterion not met

###

Collected solubility values appear next to each entry.
Assay protocol: Partition Coefficient Studies (water solubility, heptane solubility, water/heptane partition)
Test settings: heptane, organic solvent or mixture
Just the number please, in µg/mL, no unit attached.

Solved entries:
| Substance smiles | Measurement |
| --- | --- |
| Cn1c(=O)c2c(ncn2COC(=O)C(C)(C)C)n(C)c1=O | 1550 |
| CCCC(=O)OCn1cnc2c1c(=O)n(C)c(=O)n2C | 650 |
| CCC(=O)OCn1cnc2c1c(=O)n(C)c(=O)n2C | 180 |
| CCCCCC(=O)OCn1cnc2c1c(=O)n(C)c(=O)n2C | 2260 |
| CCCCCCCC(=O)OCn1cnc2c1c(=O)n(C)c(=O)n2C | 520 |

Continue with the next molecule.
Looking up CCN(CC)C(=O)CCC(=O)OCn1cnc2c1c(=O)n(C)c(=O)n2C , I see its solubility listed as 170

###

Assay protocol: Partition Coefficient Studies (water solubility, heptane solubility, water/heptane partition)
Test settings: water
solubility: recorded values
The reply should contain only the number, in µg/mL.

Reference set (3 entries):
| Substance smiles | solubility, µg/mL |
| --- | --- |
| CCN(CC)C(=O)CCC(=O)OCn1cnc2c1c(=O)n(C)c(=O)n2C | 26300 |
| Cn1c(=O)c2c(ncn2COC(=O)C(C)(C)C)n(C)c1=O | 2010 |
| CCCCCC(=O)OCn1cnc2c1c(=O)n(C)c(=O)n2C | 110 |

Could you now look at the following compound, please?
The recorded solubility for entry CCCCCCCC(=O)OCn1cnc2c1c(=O)n(C)c(=O)n2C equals 120

###

Assay protocol: Partition Coefficient Studies (water solubility, heptane solubility, water/heptane partition)
Test settings: water
Listed next: entries and their corresponding solubility.

| Compound | solubility |
| --- | --- |
| CN(C)CC(=O)OCn1cnc2c1c(=O)n(C)c(=O)n2C | > 1000 mg/mL |

The compound listed as CCC(=O)OCn1cnc2c1c(=O)n(C)c(=O)n2C [C2 H5, 7-Propionyloxymethyl-theophylline] shows solubility equal to 3.87 mg/mL

Memo: CCCC(=O)OCn1cnc2c1c(=O)n(C)c(=O)n2C [C3 H7, 7-Butanoyloxymethyl-theophylline] , reported solubility: 3.89 mg/mL
